target: PPARα ligand binding domain fused to the yeast GAL4 DNA binding domain (Homo sapiens); assay: Transfection assay for PPAR receptors (GAL4-LBD luciferase reporter), PPAR alpha; details: HEK293 cells, GAL4 (UAS) luciferase reporter, 18-24 hrs
Sequence (Q07869 239-466 limits assumed): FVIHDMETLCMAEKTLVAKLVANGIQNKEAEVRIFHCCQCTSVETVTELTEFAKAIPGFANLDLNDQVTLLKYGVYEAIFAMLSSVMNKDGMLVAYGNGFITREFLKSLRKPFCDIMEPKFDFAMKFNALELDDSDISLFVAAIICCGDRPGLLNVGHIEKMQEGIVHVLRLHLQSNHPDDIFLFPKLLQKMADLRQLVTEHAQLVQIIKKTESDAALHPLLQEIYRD
pEC50: −log10 of the molar value.
Experimental endpoint: pEC50

Compound: CCOC(COc1ccc(C(F)(F)F)cc1)CSc1ccc(OC(C)(C)C(=O)O)c(C)c1 (stereo not drawn)
Target or test system: PPARα ligand binding domain fused to the yeast GAL4 DNA binding domain (Homo sapiens)
pEC50: 6.27

[A] CCC(COc1ccc(C(F)(F)F)cc1)CSc1ccc(OC(C)C(=O)O)c(C)c1 (stereo not drawn)
[B] CCC(COc1ccc(C(F)(F)F)cc1)CSc1ccc(OC(C)(C)C(=O)O)c(C)c1 (stereo not drawn)
Lookup: Among A and B , which shows a numerically higher pEC50 result? API: response body contains the label of the selected item.
Found: B
